Reported T/C values are given for each entry in this list.
Test system: P388 leukemia ip, CD2F1 mice, survival T/C
experiment summary: NCI In Vivo Anticancer Drug Screen. Data for tumor model P388 Leukemia (intraperitoneal) in CD2F1 (CDF1) mice
experimental setup: endpoint: median survival time; dose: 200.0 mg/kg/injection; schedule: Q01DX005 (ip); vehicle: saline with Tween-80; higher = longer survival
Toxic doses and inconclusive results are not listed.
experimental readout: T/C

• CN/N=C\c1cc2ccccc2c2ccccc12 = 88 % of control
• COC(=O)COC(=O)C1C(C(N)=O)N(CC(=O)OC)CCN1CC(=O)OC (stereo unspecified) = 103 % of control
• COC(=O)C(Cc1ccccc1C#N)(OC)OC = 98 % of control
• CCC1C(OC)=CC(CC)(CO)C=C1OC (stereo unspecified) = 100 % of control
• OC1(c2ccccc2)c2ccccc2NC2=NCCN21 (stereo unspecified) = 97 % of control
• CN(O)C(=O)CNC(=O)OC(C)(C)C = 100 % of control
• O=C(Nc1ccc(Sc2ccc(N=Nc3c(O)c(S(=O)(=O)O)cc4cc(S(=O)(=O)O)ccc34)cc2)cc1)c1ccc(N=Nc2cc(S(=O)(=O)O)c3ccccc3c2O)cc1 = 98 % of control
• COc1cccc2c1OC(=O)NC2O (stereo unspecified) = 112 % of control
• CON1C(=O)OCC(c2ccccc2)(c2ccccc2)C1=O = 91 % of control
• CC1=CC2(C)C3C=C(C)C(C2C(=O)C1=O)C(C)(O)C3=O (stereo unspecified) = 106 % of control
• CCOC(=O)c1oc2ccccc2c1CN(CCO)CCO = 105 % of control

The reported measurements were obtained from PubChem BioAssay AID330.
